- tested-target: Human Rac1 (residues 1-177), GMPPNP-loaded (human, UniProt P63000 1-177)
- procedure-summary: ITC; Kd at 25 °C not measured directly (binding enthalpy close to 0); estimated through linear extrapolation of the Gibbs free energy measured by ITC at 5, 10, 15 and 35 °C; same buffer
- assay-context: both partners purified
measurement-type: pKd
Would you please state pKd, meaning minus log10 of the concentration in mol/L, as a bare number?

Prompt: Report pKd, nothing else, for this binder: POSH_(315-380), shorter construct of human POSH comprising MRE1 and MRE2 (domain or fragment) GHMWSQASQNRHSMEISPPVLISSSNPTAAARISELSGLSCSAPSQVHISTTGLIVTPPPSSPVTTGPSF
Completion: 4.62
